# key: entry, value: pest or weed control at 100 g/ha
System: Phaedon cochleariae
protocol_description: Phaedon cochleariae spray test
Assay type: in vivo
condition_label: 168 h, application rate 100 g/ha, larvae, after 7 days, read-out: efficacy
Reply with the number, then its unit.

Solved cases below.
Answer with the recorded pest or weed control at 100 g/ha for the compound listed here: CCS(=O)(=O)c1c(-c2nc3cc(C(F)(F)F)ncc3n2C)nc(-c2ccn[nH]2)n1C [Example I-049]
100%

Supply reported pest or weed control at 100 g/ha belonging to this compound: CCS(=O)(=O)c1c(-c2nc3cc(C(F)(F)F)ncc3n2C)nc(-c2ccc(C#N)c(Cl)c2)n1C [Example I-082]
100%

New cases:
Report pest or weed control at 100 g/ha for CCS(=O)(=O)c1c(-c2nc3cc(C(F)(F)F)ncc3n2C)nc(-n2ccnc2)n1C [Example I-028]
100%

Respond only with pest or weed control at 100 g/ha recorded for CCS(=O)(=O)c1c(-c2nc3cc(C(F)(F)F)ncc3n2C)nc(-c2cncnc2)n1C [Example I-023]
100%

Return the recorded pest or weed control at 100 g/ha value; entry: CCS(=O)(=O)c1c(-c2nc3cc(C(F)(F)F)ncc3n2C)nc(C)n1C [Example I-064]
83%
